Cited source for all entries: PubChem BioAssay (NCI)

Recorded TGI values for a group of compounds are listed next.
- System: SF-295 CNS
- experiment_description: NCI tumour cell line growth inhibition, 48 h

See these solved cases before continuing.
[[record]]
sample_smiles = "CC(=O)O/C=C\\OC1CCCC1"
endpoint_name = "TGI"
reported_measurement = "> 100 µM"

[[record]]
sample_smiles = "CC[C@H](C)[C@H](NC(=O)C12CC(NC(C)=O)(C1)C2)C(=O)N(C)[C@H](C[C@@H](OC(C)=O)c1nc(C(=O)N[C@@H](Cc2ccccc2)C[C@H](C)C(=O)OC)cs1)C(C)C"
endpoint_name = "TGI"
reported_measurement = "> 5.25 µM"


Measured TGI, CN(C)/C=N/S(=O)(=O)c1nn2c(C=O)c(-c3ccc([N+](=O)[O-])cc3)nc2s1 : > 100 µM

###

- Test system: SNB-19 CNS
- experiment_description: NCI tumour cell line growth inhibition, 48 h
// TGI lookup, one value per entry

Examples from the recorded data:
[[record]]
molecule = "COc1ccc(-n2sc(=O)n(Cc3ccc(COC(=O)C(C)c4ccc(CC(C)C)cc4)cc3)c2=O)cc1 (stereo not drawn)"
reported_measurement = "14.5 µM"

[[record]]
molecule = "Cc1cc2c(cc1C)[n+]([O-])c(-c1c(Cl)cccc1Cl)c(N)[n+]2[O-]"
reported_measurement = "> 100 µM"

[[record]]
molecule = "O=C1C=C(Nc2ccccc2C(=O)CC(=O)C(=O)Nc2ccc(Cl)c(Cl)c2)c2ccccc2C1=O"
reported_measurement = "> 100 µM"

[[record]]
molecule = "Oc1[nH]c2ccccc2c1N=NC(=S)N1CCCC1"
reported_measurement = "> 43.8 µM"

[[record]]
molecule = "Nc1cnc2c(c1)c(=O)nc1n2CCS1"
reported_measurement = "> 100 µM"


The value of TGI measured for the molecule COc1ccc2[nH]c3c(C)c4cnccc4c(C)c3c2c1 turned out to be > 10 µM

The molecule identified as N#CC(c1ccccc1)(c1ccccc1)[C@@H](c1ccccc1)[C@H](Cc1ccccc1)NS(=O)(=O)c1ccccc1 registered its TGI at > 100 µM

In plain terms, O=C(/C=C/c1ccc(Cl)c(Cl)c1)C1CCC(Cl)CC1 (stereo not drawn) has a documented TGI of 39 µM

###

TGI: recorded values
- Test system: RXF 393 renal
- experiment_description: NCI tumour cell line growth inhibition, 48 h
Where a SMILES comes first, the peptide text is derived from it. The star is where a group is joined. Boc = CC(C)(C)OC(=O)*
The reply should contain only the number, in µM.

[[record]]
compound = "CC1(C)O[C@@H](CP(c2ccccc2)c2ccccc2)[C@H](CP(c2ccccc2)c2ccccc2)O1"
reported_measurement = 26.9

[[record]]
compound = "CC(C)NC(=O)O/N=C1\\CCC2[C@@H]3CC=C4C[C@@H](OC(=O)NC(C)C)CC[C@]4(C)C3CC[C@]12C (stereo not given in full)"
reported_measurement = 3.54

[[record]]
compound = "COc1ccc(-n2cc(-c3ccc(OC)c(OC)c3)nc2SCc2ccccc2)cc1Cl"
reported_measurement = 82

[[record]]
compound = "CCOC(=O)C(CC(C)C)NC(=O)C(Cc1ccccc1)NC(=O)CNC(=O)OC(C)(C)C (stereo not drawn) (Boc-Gly-Phe-Leu-OEt; configuration not given here)"
reported_measurement = 49

[[record]]
compound = "CC12OC3CC(O1)C1(C=O)C4CCC5(C)C(c6ccc(=O)oc6)CCC5(O)C4CCC1(C3)O2 (stereo not given)"
reported_measurement = 0.256

[[record]]
compound = "CCOC(=O)C1(Cc2ccc3ccccc3c2)CCCCCN1 (stereo not given)"
reported_measurement = 83.2

[[record]]
compound = "O=c1cc(-c2nc3ccccc3[nH]2)[nH]c2nc(-c3nc4ccccc4[nH]3)cc(-c3ccc(Cl)cc3)c12"
reported_measurement = 35.8


Now look at this entry.
Summary for this compound, O=c1cc(-c2ccccc2Cl)[nH]c2cc3c(cc12)OCO3 : TGI is 16.4

###

- System: NCI/ADR-RES ovarian
- experiment_description: NCI tumour cell line growth inhibition, 48 h
endpoint_name: TGI

[[record]]
compound = "CCOC(=O)C(Cc1cn(S(=O)(=O)c2ccc(C)cc2)cn1)P(=O)(OCC)OCC (stereo unspecified)"
target_entity = "NCI/ADR-RES ovarian"
endpoint_name = "TGI"
reported_measurement = "> 100 µM"

[[record]]
compound = "NC(=O)NC(=O)C1CCCCC1C(=O)O (stereo unspecified)"
target_entity = "NCI/ADR-RES ovarian"
endpoint_name = "TGI"
reported_measurement = "> 100 µM"

[[record]]
compound = "CN(NC(=O)c1cccs1)C1=NCCN1"
target_entity = "NCI/ADR-RES ovarian"
endpoint_name = "TGI"
reported_measurement = "> 100 µM"

[[record]]
compound = "CC(OCc1ccccc1)C(NC(=O)C1CSSCC(NC(=O)C(Cc2ccccc2)NC(=O)OCc2ccccc2)C(=O)NC(Cc2ccccc2)C(=O)NC(Cc2cn(C=O)c3ccccc23)C(=O)NC(CCCCNC(=O)OCc2ccccc2)C(=O)NC(C(C)OCc2ccccc2)C(=O)N1)C(N)=O (stereo unspecified)"
target_entity = "NCI/ADR-RES ovarian"
endpoint_name = "TGI"
reported_measurement = "> 100 µM"

[[record]]
compound = "CCOC(=O)CC(N1CC1)N1CC1"
target_entity = "NCI/ADR-RES ovarian"
endpoint_name = "TGI"
reported_measurement = "> 10 µM"


// TGI value for NC(N)=N/N=C/c1ccc(O)c(C(=O)O)c1 : > 100 µM

###

- Test system: ACHN renal
- experiment_description: NCI tumour cell line growth inhibition, 48 h; in the data active = GI50 below about 0.43 µM; inactive = the rest
Tick one outcome: 1 = active, -1 = inactive

Please review the following examples before continuing.
[[record]]
molecule = "O=C(Nc1ccc(S(=O)(=O)NC2CCCCCC2)cc1)C(c1ccccc1)S(=O)(=O)c1ccc(F)cc1 (stereo not given)"
answer_label = 1

[[record]]
molecule = "Cc1sc(/N=C2/NC(=O)CS2)nc1-c1nc(/N=C2/NC(=O)CS2)sc1C"
answer_label = -1

[[record]]
molecule = "CC(C)[O-].CC(C)[O-].[O-]c1cccc2cccnc12.[O-]c1cccc2cccnc12.[Ti+4]"
answer_label = -1

[[record]]
molecule = "Brc1ccc(Br)nn1"
answer_label = -1


Asked: Test call for this molecule, please: CN(NC(=O)CC(=O)NN(C)C(=S)c1ccc(Cl)cc1)C(=S)c1ccc(Cl)cc1
Given back: -1

Asked: Test call for this molecule, please: Cc1cc2c(C(C)C)c(O)c(O)c(C=O)c2c(O)c1-c1c(C)cc2c(C(C)C)c(O)c(O)c(C=O)c2c1O (tested in a mixture with another compound)
Given back: -1

Asked: What is the recorded call for this molecule in the test? COc1ccc(-n2sc(=O)n(Cc3ccc(COC(=O)C(C)c4ccc(CC(C)C)cc4)cc3)c2=O)cc1 (stereo not given)
Given back: -1

Asked: What outcome does the record of this test show for C=C1C(=O)OC2CC3(C)OC3C3OC3C3=CC(OC3=O)C12 (stereo not given) ?
Given back: -1

Asked: Identify the outcome logged in this assay for the molecule shown: Oc1[nH]c2ccc(Cl)cc2c1/C=c1/ccc2c(c1)N=C(c1cc(F)cc(F)c1)N=2
Given back: -1

Asked: Which outcome was entered for the molecule CC[C@H](C)[C@H](NC(=O)C12CC(NC(C)=O)(C1)C2)C(=O)N(C)[C@H](C[C@@H](OC(C)=O)c1nc(C(=O)N[C@@H](Cc2ccccc2)C[C@H](C)C(=O)OC)cs1)C(C)C in this test?
Given back: -1

Asked: Tell me the recorded outcome of this test for CC(=O)N[C@@H](Cc1ccc(OP(=O)(O)O)cc1)C(=O)N[C@H]1CCC(=O)N2CCC[C@@H](C(=O)NCc3ccc(O)cc3)N2C1=O .
Given back: -1

Asked: Given CC[O-].CC[O-].O=C([CH-]C(=O)c1ccccc1)c1ccccc1.O=C([CH-]C(=O)c1ccccc1)c1ccccc1.[Ti+4] , state the outcome it received in this test.
Given back: -1

###

- System: SNB-75 CNS
- experiment_description: NCI tumour cell line growth inhibition, 48 h
Catalogue of GI50 values

[[record]]
molecule = "COc1ccc(NC(=O)O[C@H]2[C@H](O[C@H]3[C@@H](O)COC(O[C@H]4C[C@H]5[C@@H]6CC=C7C[C@@H](O)CC[C@]7(C)[C@H]6CC[C@]5(C)[C@H]4[C@H](C)C(=O)CCC(C)C)[C@@H]3OC(C)=O)OC[C@@H](O)[C@@H]2O)cc1 (stereo partly specified)"
reported_measurement = "< 0.01 µM"

[[record]]
molecule = "CC(=O)/C=C/C1=C(c2ccsc2)c2ccccc2CC1"
reported_measurement = "> 100 µM"

[[record]]
molecule = "CCOc1cc(/C=N\\NC(=O)N/N=C/c2ccc(O)c(OCC)c2)ccc1O"
reported_measurement = "2.76 µM"


Next:
Measured GI50, O=C(/C=C/c1cccc(B(O)O)c1)c1cccc(B(O)O)c1 : 3.61 µM
